- System: S-3769 strain
- ASSAY: Combinational effect with antibacterial agent against Pseudomonas aeruginosa (Test Examples 2 and 4): S-3769 strain with AMK or GM at 1/4 MIC, EC99
- Type: cell-based
- RUN PARAMETERS: Table 52, Test Example 2; combined with GM at 1/4 MIC; 16 to 20 hours culture, OD595
- Method: The combinational effect of the test compound with the antibacterial agent against Pseudomonas aeruginosa was evaluated. The […] was used for evaluating the inhibitory ability against MexXY-OprM. AMK or GM was used as the antibacterial agent used in combination. […] The combinational effect of the test compound with the antibacterial agent against Pseudomonas aeruginosa was evaluated in the same manner as in Test Example 2.

| MOLECULE | EC99, S-3769 strain, GM |
| --- | --- |
| CCOc1cccc(F)c1CN1CCN(C(=O)[C@H](N)C2CCN(CCc3coc4ccccc34)CC2)CC1 [Example 152] | S (EC99≤12.5 μM) |
| CCOc1cccc(F)c1CN1CCN(C(=O)[C@H](N)C2CCN(CCc3cc(C(F)(F)F)ccc3-c3ccccc3)CC2)CC1 [Example 83] | B (25 μM<EC99≤100 μM) |
| CCOc1cccc(F)c1CN1CCN(C(=O)[C@H](N)C2CCN(CCc3cc(OC)ccc3-c3ccccc3)CC2)CC1 [Example 51] | S (EC99≤12.5 μM) |
| CCOc1cccc(F)c1CN1CCN(C(=O)CN2CCC(C(N)Cc3ccccc3)CC2)CC1 (stereo not shown) [Example 423] | C (100 μM<EC99) |
| CCOc1ccc(F)c(F)c1CN1CCN(C(=O)[C@H](N)C2CCN(CCc3cc(Cl)ccc3-c3ccccc3)CC2)CC1 [Example 35] | S (EC99≤12.5 μM) |
| CCOc1cccc(F)c1CN1CCN(C(=O)[C@H](N)C2CCN(CCc3cc(Cl)ccc3-c3ccccc3)CC2)CC1 [Example 137] | S (EC99≤12.5 μM) |
| CCOc1cccc(F)c1CN1CCN(C(=O)CN2CCC(CN)(CCc3ccccc3)CC2)CC1 [Example 425] | B (25 μM<EC99≤100 μM) |
| CCOc1cccc(F)c1CN1CCN(C(=O)[C@H](N)C2CCN(CCc3csc4ccccc34)CC2)CC1 [Example 150] | S (EC99≤12.5 μM) |
| N[C@@H](C(=O)N1CCN(Cc2cccc3c2OCCC3)CC1)C1CCN(CCc2cc(Cl)ccc2-c2ccccc2)CC1 [Example 10] | A (12.5 μM<EC99≤25 μM) |
| CCOc1cccc(F)c1CN1CCN(C(=O)[C@H](N)C2CCN(CCc3ccccc3OC)CC2)CC1 [Example 122] | A (12.5 μM<EC99≤25 μM) |
| CCOc1cccc(F)c1CN1CCN(C(=O)[C@H](N)C2CCN(CCc3cc(Cl)ccc3-c3cnccc3N)CC2)CC1 [Example 93] | B (25 μM<EC99≤100 μM) |
| CCOc1cccc(F)c1CN1CCN(C(=O)[C@H](N)C2CCN(CCc3cc(Cl)ccc3-c3ccsc3)CC2)CC1 [Example 101] | S (EC99≤12.5 μM) |
| CCOc1cccc(F)c1CN1CCN(C(=O)[C@H](N)C2CCN(CCc3cc(Cl)ccc3-c3ccccc3O)CC2)CC1 [Example 107] | A (12.5 μM<EC99≤25 μM) |
| N[C@@H](C(=O)N1CCN(Cc2cccc3c2OCC3)CC1)C1CCN(CCc2cc(Cl)ccc2-c2ccccc2)CC1 [Example 38] | A (12.5 μM<EC99≤25 μM) |
| CCOc1cccc(F)c1CN1CCN(C(=O)[C@H](N)C2CCN(CCc3c(F)cccc3-c3ccccc3)CC2)CC1 [Example 52] | S (EC99≤12.5 μM) |
| CCOc1cccc(F)c1CN1CCN(C(=O)[C@H](N)C2CCN(CCc3cc(Cl)ccc3C3=CCCNC3)CC2)CC1 [Example 88] | S (EC99≤12.5 μM) |
| CCOc1cccc(F)c1CN1CCN(C(=O)[C@H](N)C2CCN(CCc3c(Cl)cccc3-c3ccccc3)CC2)CC1 [Example 53] | S (EC99≤12.5 μM) |
| CCOc1cccc(F)c1CN1CCN(C(=O)[C@H](N)C2CCN(CCc3cc(Cl)ccc3-c3ccc(F)cc3O)CC2)CC1 [Example 108] | A (12.5 μM<EC99≤25 μM) |
| CCOc1c(Cl)ccc(F)c1CN1CCN(C(=O)[C@H](N)C2CCN(CCc3cc(Cl)ccc3-c3ccccc3)CC2)CC1 [Example 9] | A (12.5 μM<EC99≤25 μM) |
| CCOc1cccc(F)c1CN1CCN(C(=O)CN2CCC(O)(CCc3ccccc3)CC2)CC1 [Example 422] | C (100 μM<EC99) |
| CCOc1cccc(F)c1CN1CCN(C(=O)[C@H](N)C2CCN(CCc3cc(Cl)ccc3C3=CCNCC3)CC2)CC1 [Example 71] | S (EC99≤12.5 μM) |
| CCOc1cccc(F)c1CN1CCN(C(=O)[C@H](N)C2CCN(CCc3cc(Cl)ccc3-c3cccc(C#N)c3)CC2)CC1 [Example 65] | A (12.5 μM<EC99≤25 μM) |
| CCOc1cccc(F)c1CN1CCN(C(=O)[C@H](N)C2CCN(CCc3cccc4ccccc34)CC2)CC1 [Example 42] | S (EC99≤12.5 μM) |
| N[C@@H](C(=O)N1CCN(Cc2scc3c2OCCO3)CC1)C1CCN(CCc2cc(Cl)ccc2-c2ccccc2)CC1 [Example 11] | A (12.5 μM<EC99≤25 μM) |
| N[C@@H](C(=O)N1CCN(Cc2ccccc2OCC(F)(F)F)CC1)C1CCN(CCc2cc(Cl)ccc2-c2ccccc2)CC1 [Example 2] | S (EC99≤12.5 μM) |
| CCOc1cccc(F)c1CN1CCN(C(=O)[C@H](N)C2CCN(CCc3cc(C)ccc3-c3ccccc3)CC2)CC1 [Example 81] | S (EC99≤12.5 μM) |
| CCOc1cccc(F)c1CN1CCN(C(=O)[C@H](N)C2CCN(CCc3c(-c4ccccc4)ccc(Cl)c3F)CC2)CC1 [Example 79] | A (12.5 μM<EC99≤25 μM) |
| CCSc1cc(F)ccc1CN1CCN(C(=O)[C@H](N)C2CCN(CCc3cc(Cl)ccc3-c3ccccc3)CC2)CC1 [Example 30] | S (EC99≤12.5 μM) |
